Taken from the supplement of paper PMC8975748.

# System: Saccharomyces cerevisiae BY4741 SeMeCo community
# Protocol details: mean cell size (pixel area) (pixels); higher = larger cells
# Conditions: 10 µM; 24 h; SM minimal medium
Where a name gives a salt, the structure may show the parent alone.
Measured endpoint: mean cell size
Just the number, please, no unit after it.

Exercise: Lab note: need mean cell size for "Cc1cc(O)ccc1Cl" on Saccharomyces cerevisiae BY4741 SeMeCo community, anyone have it?
Key: 12.6

Exercise: Also check C[C@H]1O[C@H](O[C@H]2[C@H](O)[C@@H](O)[C@@H](O)[C@H](O)[C@@H]2O)[C@@H](N)C[C@@H]1NC(=N)C(=O)O [Kasugamycin hydrochloride]
Key: 12.1

* * *

# Test system: Saccharomyces cerevisiae BY4741 SeMeCo community
# Protocol details: z-score of subpopulation abundance vs DMSO median, subpopulation auxotrophic for HLM; higher = larger share of this subpopulation than in DMSO controls
# Conditions: 10 µM; 24 h; SM minimal medium; subpopulation (auxotrophy): HLM
Counter-ions that a name gives are not always drawn.
Readings of z-score of subpopulation abundance for the listed compounds
Number only, no unit.

A selection of reference data follows.
C=CN1CCCC1=O.II : 0.98
COc1ccc(C(CN(C)C)C2(O)CCCCC2)cc1 (configuration not stated) [Venlafaxine HCl] : -0.22
CCN(C)C(=O)Oc1cccc([C@H](C)N(C)C)c1 [Rivastigmine Tartrate] : 0.01

Exercise: Suppose we examine the compound CCCCCCCCCCCCCCCC[n+]1ccccc1 [Cetylpyridinium Chloride] ; what z-score of subpopulation abundance value has been reported?
Key: 67.8

Exercise: Try this compound too: CN(C)[C@@H]1C(=O)C(C(N)=O)=C(O)[C@@]2(O)C(=O)C3=C(O)c4c(O)cccc4[C@@](C)(O)[C@H]3C[C@@H]12 [Tetracycline HCl]
Key: -0.42

Exercise: Similarly, NCC(O)c1ccc(O)cc1 (racemic) [(+,-)-Octopamine HCl] ?
Key: -0.75

Exercise: Let us now turn to CN(C)C(=O)Oc1ccc[n+](C)c1 [Pyridostigmine Bromide]
Key: 0.28

Exercise: Try this compound too: NCCc1c[nH]c2ccc(O)cc12 [Serotonin HCl]
Key: -0.77

Exercise: Thanks! And "C=C(C)[C@H]1Cc2c(ccc3c2O[C@@H]2COc4cc(OC)c(OC)cc4[C@@H]2C3=O)O1" ?
Key: 0.69

Exercise: And then CN(C)[C@@H]1C(=O)C(C(N)=O)=C(O)[C@@]2(O)C(=O)C3=C(O)c4c(O)cccc4[C@@](C)(O)[C@H]3[C@H](O)[C@@H]12 [Oxytetracycline Dihydrate] , what is it?
Key: -0.22

* * *

# Test system: Saccharomyces cerevisiae BY4741 SeMeCo community
# Protocol details: z-score of subpopulation abundance vs DMSO median, subpopulation auxotrophic for HLU; higher = larger share of this subpopulation than in DMSO controls
# Conditions: 10 µM; 24 h; SM minimal medium; subpopulation (auxotrophy): HLU
Where a name gives a salt, the structure may show the parent alone.
Measured endpoint: z-score of subpopulation abundance
Please reply with the number alone, leaving off any unit.

COc1ccc(C(CN(C)C)C2(O)CCCCC2)cc1 (stereo not given) [Venlafaxine HCl] : -0.14

Now look at this entry.
Exercise: # get_value(readout='z-score of subpopulation abundance', item= CC(=O)O[C@H]1C[C@@H]2CC[C@@H]3[C@H](CC[C@@]4(C)[C@H]3C[C@H]([N+]3(C)CCCCC3)[C@@H]4OC(C)=O)[C@@]2(C)C[C@@H]1[N+]1(C)CCCCC1 [Pancuronium dibromide] )
Key: -0.5

* * *

The entries below are paired with their reported z-score of subpopulation abundance.
# System: Saccharomyces cerevisiae BY4741 SeMeCo community
# Protocol details: z-score of subpopulation abundance vs DMSO median, subpopulation auxotrophic for LU; higher = larger share of this subpopulation than in DMSO controls
# Conditions: 10 µM; 24 h; SM minimal medium; subpopulation (auxotrophy): LU
Counter-ions that a name gives are not always drawn.
Answer field: number only, no words.

CN(C)[C@@H]1C(=O)C(C(N)=O)=C(O)[C@@]2(O)C(=O)C3=C(O)c4c(O)ccc(Cl)c4[C@@](C)(O)[C@H]3C[C@@H]12 [Chlortetracycline HCl] : -0.72
C=CC[C@]1(O)CC[C@H]2[C@@H]3CCC4=CC(=O)CCC4=C3C=C[C@@]21C : -0.55
COC(=O)C1=CCCN(C)C1 : 0.1
C[N+](C)(C)CCCCCCCCCC[N+](C)(C)C [Decamethonium Bromide] : -0.59
COc1ccc(C(CN(C)C)C2(O)CCCCC2)cc1 (stereo not given) [Venlafaxine HCl] : -0.06

Exercise: Which z-score of subpopulation abundance reading was recorded for the molecule "CC[C@H]1[C@@H]2C[C@H]3[C@@H]4N(C)c5ccccc5[C@]45C[C@@H]([C@@H]2[C@H]5O)N3[C@@H]1O" ?
Key: -0.26

Exercise: Let us now turn to "COc1ccc2c3c([nH]c2c1)C(C)=NCC3"
Key: -7.5

Exercise: What do we get for "Oc1cc(Cl)ccc1Oc1ccc(Cl)cc1Cl" ?
Key: -0.23

Exercise: "CCN(C)C(=O)Oc1cccc([C@H](C)N(C)C)c1" ?
Key: -1.09

Exercise: Try the molecule "NC(=O)CN1CCCC1=O"
Key: 1.37

Exercise: Queued: CN(C)[C@@H]1C(=O)C(C(N)=O)=C(O)[C@@]2(O)C(=O)C3=C(O)c4c(O)cccc4[C@@](C)(O)[C@H]3C[C@@H]12 [Tetracycline HCl]
Key: -0.24

Exercise: And for NCC(O)c1ccc(O)cc1 (racemic) [(+,-)-Octopamine HCl] ?
Key: -0.38

Exercise: Next molecule up: CN(C)C(=O)Oc1ccc[n+](C)c1 [Pyridostigmine Bromide]
Key: 0.57

Exercise: // next record N[C@@H]1C[C@H]1c1ccccc1 [Tranylcypromine (2-PCPA) HCl]
Key: -0.31

Exercise: Another molecule: "C[C@@H]1O[C@@H](O[C@H]2C[C@@H](O)[C@]3(CO)[C@H]4[C@H](O)C[C@]5(C)[C@@H](C6=CC(=O)OC6)CC[C@]5(O)[C@@H]4CC[C@]3(O)C2)[C@H](O)[C@H](O)[C@H]1O"
Key: -0.53

Exercise: Try "O=c1[nH]c2ccccc2n1CCCN1CCC(n2c(=O)[nH]c3cc(Cl)ccc32)CC1" next.
Key: 0.48

* * *

# Tested on: Saccharomyces cerevisiae BY4741 SeMeCo community
# Protocol details: z-score of subpopulation abundance vs DMSO median, subpopulation auxotrophic for U; higher = larger share of this subpopulation than in DMSO controls
# Conditions: 10 µM; 24 h; SM minimal medium; subpopulation (auxotrophy): U
Structures can show the parent of a compound that is named as a salt.
Binning rule for recorded z-score of subpopulation abundance: low = under -0.3, moderate = from -0.3 up to 0.9, high = 0.9 and over

Example results:
NC(=O)CN1CCCC1=O : moderate
CN1c2ccccc2C(NCCCCCCC(=O)O)c2ccc(Cl)cc2S1(=O)=O (stereo not drawn) [Tianeptine sodium] : low
CN1[C@@H]2CC[C@H]1C[C@@H](OC(=O)[C@H](CO)c1ccccc1)C2 : moderate
CN1[C@@H]2CC[C@H]1C[C@@H](OC(=O)C(CO)c1ccccc1)C2 (stereo partly drawn) [Atropine sulfate monohydrate] : high

Exercise: Which class is correct for the following molecule? COc1ccc(C(CN(C)C)C2(O)CCCCC2)cc1 (stereo not drawn) [Venlafaxine]
Key: high

Exercise: "Cc1cc(O)ccc1Cl" ?
Key: low

Exercise: And what about the molecule "O=c1[nH]c2ccccc2n1CCCN1CCC(n2c(=O)[nH]c3cc(Cl)ccc32)CC1" ?
Key: moderate

Exercise: And what about the molecule "C=CCN1C[C@H](C(=O)N(CCCN(C)C)C(=O)NCC)C[C@@H]2c3cccc4[nH]cc(c34)C[C@H]21" ?
Key: high

* * *

# Test system: Saccharomyces cerevisiae BY4741 SeMeCo community
# Protocol details: z-score of subpopulation abundance vs DMSO median, subpopulation auxotrophic for HM; higher = larger share of this subpopulation than in DMSO controls
# Conditions: 10 µM; 24 h; SM minimal medium; subpopulation (auxotrophy): HM
Hi, to clarify the labels: label 1 covers z-score of subpopulation abundance from -0.01 upward, label 0 covers anything below -0.01.

NC(=O)CN1CCCC1=O : label 1
Cn1cc(C2=C(c3cn(C4CCN(Cc5ccccn5)CC4)c4ccccc34)C(=O)NC2=O)c2ccccc21 : label 0
CN(C)[C@@H]1C(=O)C(C(N)=O)=C(O)[C@@]2(O)C(=O)C3=C(O)c4c(O)cccc4[C@@](C)(O)[C@H]3[C@H](O)[C@@H]12 [Oxytetracycline Dihydrate] : label 0
CN[C@@H]1[C@@H](O)[C@@H](O[C@@H]2[C@@H](O)[C@H](O[C@H]3O[C@H](CN)CC[C@H]3N)[C@@H](N)C[C@H]2N)OC[C@]1(C)O.CN[C@@H]1[C@@H](O)[C@@H](O[C@@H]2[C@@H](O)[C@H](O[C@H]3O[C@H]([C@@H](C)N)CC[C@H]3N)[C@@H](N)C[C@H]2N)OC[C@]1(C)O.CN[C@@H]1[C@@H](O)[C@@H](O[C@@H]2[C@@H](O)[C@H](O[C@H]3O[C@H]([C@@H](C)NC)CC[C@H]3N)[C@@H](N)C[C@H]2N)OC[C@]1(C)O [Gentamicin Sulfate] : label 0

Exercise: Entry CCOC(=O)Nc1ccc(NCc2ccc(F)cc2)cc1N [Retigabine] : is its z-score of subpopulation abundance no less than -0.01?
Key: label 1

Exercise: // same read-out, input: CN(C)C(=O)Oc1cccc([N+](C)(C)C)c1 [Neostigmine Bromide]
Key: label 0

Exercise: Thanks! And "O=c1[nH]c2ccccc2n1CCCN1CCC(n2c(=O)[nH]c3cc(Cl)ccc32)CC1" ?
Key: label 1

Exercise: Same question, O=C(O[C@H]1C[C@H]2CC[C@@H](C1)[N+]21CCCC1)C(O)(c1ccccc1)c1ccccc1 [Trospium chloride] this time
Key: label 1

Exercise: How about this compound: "CC[C@@H](C(N)=O)N1CCCC1=O"
Key: label 0

Exercise: Another compound to check: "C[N+]1(C)[C@@H]2C[C@@H](OC(=O)[C@H](CO)c3ccccc3)C[C@H]1[C@@H]1O[C@@H]12"
Key: label 1

Exercise: Then what about the compound CN1[C@@H]2C[C@@H](OC(=O)[C@H](CO)c3ccccc3)C[C@H]1[C@@H]1O[C@@H]12 [Scopolamine HBr trihydrate] ?
Key: label 0

Exercise: Next compound up: "CC[C@H]1CN2CC[C@]3(C(=O)Nc4ccccc43)[C@@H]2C[C@@H]1/C(=C\OC)C(=O)OC"
Key: label 0
